These entries and their values trace back to ChEMBL document CHEMBL1130001.

>  <Compound>
CC[C@H]1OC(=O)CC(O)[C@H](C)[C@@H](O[C@@H]2O[C@H](C)C[C@H](N(C)C)[C@H]2O)[C@@H](CCNC2C(O)CCCC2O)C[C@@H](C)C(=O)/C=C/C(C)=C/[C@@H]1C (some centres undefined)

>  <pCF>
1.189

$$$$
>  <Compound>
CO[C@@H]1[C@@H](O[C@@H]2O[C@H](C)[C@@H](O[C@H]3C[C@@](C)(O)[C@@H](OC(=O)CC(C)C)[C@H](C)O3)[C@H](N(C)C)[C@H]2O)[C@@H](CC=O)C[C@@H](C)C(=O)/C=C/[C@@H]2O[C@H]2C[C@@H](C)OC(=O)C[C@H]1OC(C)=O

>  <pCF>
0.209

$$$$
>  <Compound>
CC[C@H]1OC(=O)CC(O)[C@H](C)[C@@H](O[C@@H]2O[C@H](C)C[C@H](N(C)C)[C@H]2O)[C@@H](CCN(CCCN(C)C)C(=O)[C@H](C)N)C[C@@H](C)C(=O)/C=C/C(C)=C/[C@@H]1C (some centres undefined)

>  <pCF>
1.938

$$$$
>  <Compound>
CC[C@H]1OC(=O)[C@H](C)[C@@H](O[C@H]2C[C@@](C)(OC)[C@@H](O)[C@H](C)O2)[C@H](C)[C@@H](O[C@@H]2O[C@H](C)C[C@H](N(C)C)[C@H]2O)[C@](C)(OC)C[C@@H](C)C(=O)[C@H](C)[C@@H](O)[C@]1(C)O

>  <pCF>
0.011

$$$$
